Tested on: Microbacterium 1 (Microbacterium arborescens)
test_summary: relative growth (AUC of 72 h growth curve relative to DMSO control, dAUC) (ratio); higher = more growth (less inhibition), active = hit call of the paper
test_context: 20 µM
Returns one of met or not met; met when relative growth is >= 1.

-- ask Please tell me: is the molecule CCCN(CCOc1c(Cl)cc(Cl)cc1Cl)C(=O)n1ccnc1 at or over 1 in terms of relative growth?
-- reply not met

###

System: Arthrobacter 3 (Arthrobacter sp.)
test_summary: relative growth (AUC of 72 h growth curve relative to DMSO control, dAUC) (ratio); higher = more growth (less inhibition), active = hit call of the paper
test_context: 20 µM
This section presents molecules with their documented relative growth values.
Reply with just the number.

Field: example entries. Status: answers known.
molecule	relative growth
CNC(=O)/C=C(\C)OP(=O)(OC)OC	0.94
Cc1nnc(-c2ccccc2)c(=O)n1N	1.04
CCC(=O)Nc1ccc(Cl)c(Cl)c1	1.02
N#Cc1cc(Br)c(O)c(Br)c1	1.02
Fc1ccc([C@]2(Cn3cncn3)O[C@H]2c2ccccc2Cl)cc1 (racemic)	0.856

Here is the next item to consider.
-- ask Fill in: relative growth of Cc1ccc(/N=C/N(C)/C=N/c2ccc(C)cc2C)c(C)c1 is ___
-- reply 1.04

###

Test system: Pseudomonas 4 (Pseudomonas peli)
test_summary: relative growth (AUC of 72 h growth curve relative to DMSO control, dAUC) (ratio); higher = more growth (less inhibition), active = hit call of the paper
test_context: 20 µM
endpoint_label: relative growth
Reply with just the number.

Field: example entries. Status: answers known.
compound	measured_number
CC(C)NC(=O)N1CC(=O)N(c2cc(Cl)cc(Cl)c2)C1=O	0.923
Cc1ccc(/N=C/N(C)/C=N/c2ccc(C)cc2C)c(C)c1	0.967
CO/C=C(/C(=O)OC)c1ccccc1Oc1cc(Oc2ccccc2C#N)ncn1	1.03

-- ask // fetch Pseudomonas 4 (Pseudomonas peli) relative growth for CC(Oc1ccc(Oc2nc3ccc(Cl)cc3o2)cc1)C(=O)O (configuration not stated)
-- reply 1.01

-- ask Same for CCNC(=O)NC(=O)/C(C#N)=N/OC
-- reply 0.981

-- ask Same for CCOc1ccc(C(C)(C)COCc2cccc(Oc3ccccc3)c2)cc1
-- reply 0.914

-- ask Same for Cc1cc(C)nc(Nc2ccccc2)n1
-- reply 0.947

###

This section presents compounds with their documented relative growth values.
Tested on: Pseudomonas 1 (Pseudomonas baetica)
test_summary: relative growth (AUC of 72 h growth curve relative to DMSO control, dAUC) (ratio); higher = more growth (less inhibition), active = hit call of the paper
test_context: 20 µM
Reply with just the number.

-- ask Fill in: relative growth of CC(C)(C)[C@@H](O)[C@H](Oc1ccc(Cl)cc1)n1cncn1 is ___
-- reply 0.598

-- ask Same for CCC(=O)Nc1ccc(Cl)c(Cl)c1
-- reply 1.04

-- ask Same for CNC(=O)ON=C(C)SC
-- reply 0.876

-- ask Same for Cc1nnc(-c2ccccc2)c(=O)n1N
-- reply 1.08

-- ask Same for CCCCOC(=O)[C@H](C)Oc1ccc(Oc2ccc(C#N)cc2F)cc1
-- reply 0.985

-- ask Same for N#Cc1cc(Br)c(O)c(Br)c1
-- reply 1.06

-- ask Same for CCc1cc(C)cc(CC)c1-c1c(OC(=O)C(C)(C)C)n2n(c1=O)CCOCC2
-- reply 1.1

-- ask Same for CCOP(=S)(OCC)Oc1cc(C)nc(C(C)C)n1
-- reply 0.877

-- ask Same for N#CCNC(=O)c1cnccc1C(F)(F)F
-- reply 1.05

-- ask Same for CCCCCCCCCCCCNC(=N)N
-- reply 1.05

-- ask Same for COC(=O)c1ccccc1S(=O)(=O)NC(=O)Nc1nc(C)nc(OC)n1
-- reply 0.998

-- ask Same for CCC(CC)Nc1c([N+](=O)[O-])cc(C)c(C)c1[N+](=O)[O-]
-- reply 1.13

###

System: Arthrobacter 1 (Arthrobacter humicola)
test_summary: relative growth (AUC of 72 h growth curve relative to DMSO control, dAUC) (ratio); higher = more growth (less inhibition), active = hit call of the paper
test_context: 20 µM
endpoint_label: relative growth
Reply with just the number.

molecule	study_system	relative growth
CCc1cnc(C2=NC(C)(C(C)C)C(=O)N2)c(C(=O)O)c1 (centres undefined)	Arthrobacter 1 (Arthrobacter humicola)	0.895

-- ask Fill in: relative growth of CNC(=O)ON=C(C)SC is ___
-- reply 0.962

-- ask Same for COc1cc(C)c(C(=O)c2c(OC)ccc(Br)c2C)c(OC)c1OC
-- reply 1.15

-- ask Same for CO/C=C(/C(=O)OC)c1ccccc1COc1cccc(C(F)(F)F)n1
-- reply 0.923

-- ask Same for Cc1nc(N(C)C)nc(OC(=O)N(C)C)c1C
-- reply 0.924

-- ask Same for N#CC(CCc1ccc(Cl)cc1)(Cn1cncn1)c1ccccc1 (centres undefined)
-- reply 0.81

-- ask Same for COCC(C)N(C(=O)CCl)c1c(C)csc1C (centres undefined)
-- reply 0.907

-- ask Same for CC1(C)[C@H](/C=C(\Cl)C(F)(F)F)[C@@H]1C(=O)OC(C#N)c1cccc(Oc2ccccc2)c1 (some centres undefined)
-- reply 1.28

-- ask Same for CCNc1nc(Cl)nc(NC(C)C)n1
-- reply 0.902

###

System: Flavobacterium 1 (Flavobacterium glaciei)
test_summary: relative growth (AUC of 72 h growth curve relative to DMSO control, dAUC) (ratio); higher = more growth (less inhibition), active = hit call of the paper
test_context: 20 µM
Returns one of t or f; t when relative growth is >= 1.

Below, 8 molecules whose answers are already recorded.
molecule	class_name
CC1(C)C(C(=O)OC(C#N)c2cccc(Oc3ccccc3)c2)C1(C)C (stereo not drawn)	f
Fc1ccc([C@]2(Cn3cncn3)O[C@H]2c2ccccc2Cl)cc1 (racemic)	f
COP(=O)(NC(C)=O)SC (stereo not drawn)	t
CO/C=C(/C(=O)OC)c1ccccc1COc1cccc(C(F)(F)F)n1	f
O=C(Nc1ccc(F)cc1F)c1cccnc1Oc1cccc(C(F)(F)F)c1	t
Cc1cc(C(C#N)c2ccc(Cl)cc2)c(Cl)cc1NC(=O)c1cc(I)cc(I)c1O (stereo not drawn)	f
C#CCOc1ccc(CCNC(=O)C(OCC#C)c2ccc(Cl)cc2)cc1OC (stereo not drawn)	f
COc1ccc(C(=CC(=O)N2CCOCC2)c2ccc(Cl)cc2)cc1OC (mixture of isomers)	t

-- ask Please tell me: is the molecule O=C(NC(=O)c1c(F)cccc1F)Nc1ccc(OC(F)(F)C(F)OC(F)(F)F)c(Cl)c1 (stereo not drawn) at or over 1 in terms of relative growth?
-- reply f

-- ask Same for CCCC(Cn1cncn1)c1ccc(Cl)cc1Cl (stereo not drawn)
-- reply t

-- ask Same for COP(N)(=O)SC (stereo not drawn)
-- reply f

-- ask Same for N#Cc1sc2c(=O)c3ccccc3c(=O)c=2sc1C#N
-- reply f

-- ask Same for CC1(C)[C@H](C(=O)O[C@H](C#N)c2cccc(Oc3ccccc3)c2)[C@@H]1C=C(Br)Br
-- reply t

-- ask Same for CC1(C)[C@H](/C=C(\Cl)C(F)(F)F)[C@@H]1C(=O)OC(C#N)c1cccc(Oc2ccccc2)c1 (stereo partly drawn)
-- reply f

-- ask Same for O=C(NC(=O)c1c(F)cccc1F)Nc1ccc(Cl)cc1
-- reply f

-- ask Same for O=C(O)COc1ccc(Cl)cc1Cl
-- reply f

-- ask Same for CC(C)(C)C(O)(CCc1ccc(Cl)cc1)Cn1cncn1 (stereo not drawn)
-- reply f

-- ask Same for Nc1c([N+](=O)[O-])ccc(Oc2ccccc2)c1Cl
-- reply f

-- ask Same for CN/C(=N/CC1CCOC1)N[N+](=O)[O-] (stereo not drawn)
-- reply t

-- ask Same for Oc1ccccc1-c1ccccc1
-- reply f

-- ask Same for CS(=O)(=O)c1ccc(C(=O)C2C(=O)CCCC2=O)c([N+](=O)[O-])c1
-- reply t

-- ask Same for CCC(CC)Nc1c([N+](=O)[O-])cc(C)c(C)c1[N+](=O)[O-]
-- reply t

-- ask Same for CCOc1ccc(C(C)(C)COCc2cccc(Oc3ccccc3)c2)cc1
-- reply f

-- ask Same for CN/C(=N\[N+](=O)[O-])NCc1cnc(Cl)s1
-- reply f

###

Test system: Oryzobacter 1 (Oryzobacter terrae)
test_summary: relative growth (AUC of 72 h growth curve relative to DMSO control, dAUC) (ratio); higher = more growth (less inhibition), active = hit call of the paper
test_context: 20 µM
endpoint_label: relative growth
Reply with just the number.

Field: example entries. Status: answers known.
compound	relative growth
CCOCn1c(-c2ccc(Cl)cc2)c(C#N)c(Br)c1C(F)(F)F	1
CC(Oc1ccc(Oc2nc3ccc(Cl)cc3o2)cc1)C(=O)O (centres undefined)	0.998
COCC(C)N(C(=O)CCl)c1c(C)csc1C (centres undefined)	0.982
CCN(CC)c1nc(C)cc(OP(=S)(OC)OC)n1	1.06

Here is the next item to consider.
-- ask Fill in: relative growth of CCCSP(=O)(OCC)Oc1ccc(Br)cc1Cl (centres undefined) is ___
-- reply 1.27
